molecular target: L-glucagon (natural) (human); test: competitive pull-down; conditions: all L-nucleotides; ribonucleotides at positions 9, 15, 18, 19, 29, 30, rest deoxy; Selection buffer: 20 mM Tris pH 7.4, 150 mM NaCl, 5 mM KCl, 1 mM MgCl2, 1 mM CaCl2, 0.1% Tween 20, 0.1% CHAPS, 100 ug/ml HSA, 10 ug/ml yeast RNA, 37 C …
OBSERVABLE: pKd
Answer as the number alone; pKd is minus log10 of concentration in mol/L.

For the sequence shown here, GCAGTGGGGAAATGGGAGGGCTAGGTGGAAGGAATCTGAGCTACTGC [L-257-E1-001-6xR] , give the reported pKd.
8.19
